measurementTarget: Proteasome subunit beta (Trypanosoma cruzi) (UniProt O96673)
Sequence (O96673 as listed by the source): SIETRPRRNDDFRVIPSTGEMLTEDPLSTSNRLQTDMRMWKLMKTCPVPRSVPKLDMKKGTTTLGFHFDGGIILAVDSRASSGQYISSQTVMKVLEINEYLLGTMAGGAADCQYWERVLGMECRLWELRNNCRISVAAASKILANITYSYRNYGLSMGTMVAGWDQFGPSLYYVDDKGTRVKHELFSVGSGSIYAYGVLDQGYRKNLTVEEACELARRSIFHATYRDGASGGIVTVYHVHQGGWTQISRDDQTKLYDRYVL
runDescription: Trypanosoma cruzi proteasome chymotrypsin-like activity (TcProtChymo) assay. Note: in the data most compounds retested in dose-response had high values.
Format: functional
Design: scale not given: direction of the effect not stated beside the values
settings: 9.37 µM

| molecule | Percent Effect, % |
| --- | --- |
| CN(C)CC1(O)CCN(S(=O)(=O)c2ccc(F)c(F)c2)C1 (centres undefined) | 20.9 |
| COCCCNC(=O)CN(C)C(=O)c1cc(C)sc1C | 4.67 |
| COCCC(=O)N1CCC2(CC1)CC(c1ccccc1)CN(C)C2 (centres undefined) | 18.7 |
| CS(=O)(=O)CCNC(=O)C1(c2cccc(Cl)c2)CCCCC1 | 6.14 |
| CN(C)C(=O)Cc1nc(CN2CCCCC2Cn2cccn2)cs1 (centres undefined) | 12.8 |
| CCCc1cc(C(=O)N2CCOC(c3nc(-c4cccs4)no3)C2)no1 (centres undefined) | 7.55 |
| Cc1cc(C)n(CC2CCCN2Cc2c(C)noc2C)n1 (centres undefined) | 5.59 |
| CC(C)c1nc(C2CCCN(C(=O)c3ccc4[nH]cnc4c3)C2)no1 (centres undefined) | 12.5 |
| CCOC(C)c1nc(CN2CCN(c3nccc(C)n3)CC2)cs1 (centres undefined) | 10.2 |
| CCn1ccnc1CN1CCN(CC(O)Cn2cccn2)CC1 (centres undefined) | 11 |
| CCS(=O)(=O)NCCNC(=O)c1cc(Cl)c2c(c1)OCCCO2 | 8.33 |
| CCCN(C(=O)c1ccccn1)c1nc2c(s1)CCc1c-2cnn1C | 17.5 |
| O=C(c1cc(Cl)c2c(c1)OCO2)N1CCCC(n2ccnc2)C1 (centres undefined) | 7.72 |
| COc1cc(CNCCc2cnn(C)c2)cc2c1OCCO2 | 10.2 |
| Cc1nc2c(c(C)c1CC(=O)NCc1cccc(C#N)c1)c(=O)[nH]n2C | 1.05 |
| Cc1nc(CCNC(=O)NCc2ccc(N(C)C)nc2)cs1 | 12.1 |
| COc1ccc(CN(C)CC(=O)NC2(C)CCS(=O)(=O)C2)cc1F (centres undefined) | 2.8 |
| Cc1cnccc1CN1C[C@@H](O)[C@H](Oc2ccccc2)C1 | 3.28 |
| CC(=O)c1ccccc1C(=O)NCC1(CO)CC1 | 3.79 |
| Cc1cc(C)n(C2CCCN(C(=O)c3cc(C4CC4)on3)C2)n1 (centres undefined) | 13.8 |
| CC(Cn1cccn1)NC(=O)NCc1cccs1 (centres undefined) | 13 |
| CCS(=O)(=O)N1Cc2nccn2CC(COc2cccnc2)C1 (centres undefined) | 15.4 |
| CC(Cn1cccn1)NC(=O)CCc1ccc(S(N)(=O)=O)cc1 (centres undefined) | 7.03 |
| Cc1cccn2cc(CC(=O)N3CCCC(n4cncn4)C3)nc12 (centres undefined) | 15.6 |

* * *

measurementTarget: Protein translocase subunit SecA (Escherichia coli (strain K12))
runDescription: Assay to Identify E. coli SecA ATPase Inhibitors
Assay type: functional
Set-up: scale not given: direction of the effect not stated beside the values
settings: 30 µM
Results with a measured potency or affinity are listed apart.

| molecule | measurementTarget | unitsText | Percent Effect |
| --- | --- | --- | --- |
| O=C(NCCOc1cccc(Cl)c1)C1CC(=O)N(CC2CC2)C1 (configuration not stated) | Protein translocase subunit SecA (Escherichia coli (strain K12)) | % | -3.05 |
| Cn1ccnc1CN1CCCC(Cc2ccccn2)C1 (configuration not stated) | Protein translocase subunit SecA (Escherichia coli (strain K12)) | % | -7.44 |
| COc1cccc(-c2nc(CNCCn3cccn3)cs2)c1 | Protein translocase subunit SecA (Escherichia coli (strain K12)) | % | -0.562 |
| CCn1nc(C)c(CCNC(=O)C2CCCN(C(=O)N(C)C)C2)c1C (configuration not stated) | Protein translocase subunit SecA (Escherichia coli (strain K12)) | % | -5.72 |
| Cc1cc(C)nc(Nc2cc(C3CCCN(C)C3)nc(C)n2)n1 (configuration not stated) | Protein translocase subunit SecA (Escherichia coli (strain K12)) | % | -3.56 |
| Cc1ccc(C(=O)N2CCN(Cc3ccsc3)CC2)n1C | Protein translocase subunit SecA (Escherichia coli (strain K12)) | % | -2.67 |
| COC[C@H]1CCC[C@]12CN(CCc1ccccc1)CCO2 | Protein translocase subunit SecA (Escherichia coli (strain K12)) | % | 0.0327 |
| Cc1ccc(CN2CCC(c3nnc(CN4CCCCC4)n3C)CC2)o1 | Protein translocase subunit SecA (Escherichia coli (strain K12)) | % | -5.23 |
| CCn1cc(CN2CCCN(C(=O)C3=NN(C)C(=O)CC3)CC2)cn1 | Protein translocase subunit SecA (Escherichia coli (strain K12)) | % | 0.989 |
| Cc1cc(C)nc(Nc2cccc(C3CCCN(C)C3)n2)n1 (configuration not stated) | Protein translocase subunit SecA (Escherichia coli (strain K12)) | % | -4.27 |
| O=C(NCCCn1ccnc1)N1CCCC1c1cccs1 (configuration not stated) | Protein translocase subunit SecA (Escherichia coli (strain K12)) | % | -1.21 |
| Cn1cnnc1C1CCCN(C(=O)NCCOc2ccccc2)C1 (configuration not stated) | Protein translocase subunit SecA (Escherichia coli (strain K12)) | % | -3.04 |
| Cc1nn(C)c(C)c1C1COCCN1C(=O)Cc1cccc(F)c1 (configuration not stated) | Protein translocase subunit SecA (Escherichia coli (strain K12)) | % | -0.171 |
| Cc1cc(C)n(C2CN(CC(=O)NCC(C)(C)N3CCOCC3)C2)n1 | Protein translocase subunit SecA (Escherichia coli (strain K12)) | % | -1.83 |
| Fc1ccccc1-c1noc2c1CN(CC1CC1)CC2 | Protein translocase subunit SecA (Escherichia coli (strain K12)) | % | -0.719 |
| Cc1noc([C@@H]2CCCN2C(=O)C2CCN(C(=O)C3CCC3)CC2)n1 | Protein translocase subunit SecA (Escherichia coli (strain K12)) | % | -2.73 |
| COc1cccc2ccn(CCC(=O)N3CCCC(C(=O)O)C3)c12 (configuration not stated) | Protein translocase subunit SecA (Escherichia coli (strain K12)) | % | -7.04 |
| COc1cccc2c1OCC(C(=O)N(C)CCCc1cnn(C)c1)C2 (configuration not stated) | Protein translocase subunit SecA (Escherichia coli (strain K12)) | % | -3.02 |
| O=C(c1ccno1)N1CCC2(CC1)C(=O)N(CC1CC1)c1ccccc12 | Protein translocase subunit SecA (Escherichia coli (strain K12)) | % | -0.905 |
| Cc1noc(C)c1C(=O)N1CC[C@H]2C[C@@H](c3ccncn3)O[C@@H]2C1 | Protein translocase subunit SecA (Escherichia coli (strain K12)) | % | -7.73 |
| COCCc1noc(CNCC2CCCN2c2cccnn2)n1 (configuration not stated) | Protein translocase subunit SecA (Escherichia coli (strain K12)) | % | -4.29 |
| CCc1c(C(=O)NCC2CCS(=O)(=O)C2)cnn1-c1ccc(C)cc1 (configuration not stated) | Protein translocase subunit SecA (Escherichia coli (strain K12)) | % | -3.51 |
| CC(C)(C)OC(=O)NC(C)(C)c1noc(CN2CCCCC2)n1 | Protein translocase subunit SecA (Escherichia coli (strain K12)) | % | -5.9 |
| Fc1ccc(-c2n[nH]cc2-c2ccnc(NCCN3CCCC3)n2)cc1 | Protein translocase subunit SecA (Escherichia coli (strain K12)) | % | -1.15 |
| OCC1CCCN1c1cc(N2CCC(OC3CCCC3)CC2)ncn1 (configuration not stated) | Protein translocase subunit SecA (Escherichia coli (strain K12)) | % | -0.479 |
| CCc1n[nH]c(C2CN(C(=O)c3nc(C)ncc3Cl)CCO2)n1 (configuration not stated) | Protein translocase subunit SecA (Escherichia coli (strain K12)) | % | -2.86 |
| COc1ccccc1N1CCC(CNCc2cccc(OC)c2OC)C1 (configuration not stated) | Protein translocase subunit SecA (Escherichia coli (strain K12)) | % | -3.66 |
| CC(Cn1ccnc1)NC(=O)N1CCN(Cc2cccnc2)CC1 (configuration not stated) | Protein translocase subunit SecA (Escherichia coli (strain K12)) | % | -5 |
| CCN(C)c1ncnc2c1CCN(Cc1ccc(OC)cc1)CC2 | Protein translocase subunit SecA (Escherichia coli (strain K12)) | % | -4.72 |
| c1cncc(-c2ccc3c(c2)C2(CC3)CCN(c3nncs3)CC2)c1 | Protein translocase subunit SecA (Escherichia coli (strain K12)) | % | -0.421 |
| CC(C)c1cc(NC(=O)CN2CCC(N3CCNC3=O)CC2)on1 | Protein translocase subunit SecA (Escherichia coli (strain K12)) | % | -2.95 |
| CCn1nc(C)c2ncnc(NCCCN3CCOCC3)c21 | Protein translocase subunit SecA (Escherichia coli (strain K12)) | % | -5.99 |
| COc1ncc(C2(O)CCN(Cc3ccccc3O)CC2)c(OC)n1 | Protein translocase subunit SecA (Escherichia coli (strain K12)) | % | -3.88 |
| Cc1ccc(N2CCC3(CCCN(C(=O)c4cccnc4)C3)C2)nn1 (configuration not stated) | Protein translocase subunit SecA (Escherichia coli (strain K12)) | % | -10.1 |
| Cc1nc2c(c(C)c1CC(=O)Nc1cccc(C#N)c1)c(=O)[nH]n2C | Protein translocase subunit SecA (Escherichia coli (strain K12)) | % | -5.36 |
| CCS(=O)(=O)N1Cc2nccn2CC(COc2cccnc2)C1 (configuration not stated) | Protein translocase subunit SecA (Escherichia coli (strain K12)) | % | -5.39 |
| COc1ccc(CNCc2ccnc(N3CCOCC3)c2)cc1OC | Protein translocase subunit SecA (Escherichia coli (strain K12)) | % | -2.27 |
| CN(Cc1cccs1)C(=O)CN1CCCC1Cn1cncn1 (configuration not stated) | Protein translocase subunit SecA (Escherichia coli (strain K12)) | % | -1.48 |
| NC(=O)C1CCN(C(=O)c2cccc(OCc3cscn3)c2)CC1 | Protein translocase subunit SecA (Escherichia coli (strain K12)) | % | -1.56 |
| O=C(c1ccco1)N1CCOCC2(CCN(C3CCOCC3)C2)C1 (configuration not stated) | Protein translocase subunit SecA (Escherichia coli (strain K12)) | % | -0.734 |
| CCN1CC2(CC1=O)CN(Cc1cccs1)CCN(C(=O)C(C)C)C2 (configuration not stated) | Protein translocase subunit SecA (Escherichia coli (strain K12)) | % | -5.19 |
| CNc1cc(C)nc(C2CN(Cc3ccc(C)nc3)CCO2)c1 (configuration not stated) | Protein translocase subunit SecA (Escherichia coli (strain K12)) | % | -2.49 |
| Cc1nc(C)n(C2CCCN(C(=O)c3ccc(F)cc3F)C2)n1 (configuration not stated) | Protein translocase subunit SecA (Escherichia coli (strain K12)) | % | -3.45 |
| CC(=O)NCc1ccc(C(=O)N2CCCCC2Cn2cccn2)o1 (configuration not stated) | Protein translocase subunit SecA (Escherichia coli (strain K12)) | % | -1.39 |
| O=C(c1cn(-c2cc(N3CCSCC3)ncn2)cn1)N1CCSCC1 | Protein translocase subunit SecA (Escherichia coli (strain K12)) | % | -2.69 |
| COc1ccc(C(C(=O)O)N2CCCN(C3CCCCC3)CC2)cn1 (configuration not stated) | Protein translocase subunit SecA (Escherichia coli (strain K12)) | % | -1.53 |
| COC(=O)CN1CC(c2nc(Cc3ccccc3)no2)C1 | Protein translocase subunit SecA (Escherichia coli (strain K12)) | % | -5.1 |
